B1: 5KPH (parent)
chain: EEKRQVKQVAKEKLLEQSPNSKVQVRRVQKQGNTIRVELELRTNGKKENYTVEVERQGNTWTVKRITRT

Variants of: B1
Assay Protocol: folding stability dG (cDNA display proteolysis); higher = more stable
Assay Context: PBS, room temperature
Value Type: folding stability dG (kcal/mol)
One number for each entry, in kcal/mol.

Some variants with known folding stability dG results, for comparison:
>>> df
   variant_identifier  observed_result
0                R27G             3.64
1                E48W             3.87

Take each entry in turn and give its folding stability dG.
1. V9K
2. T51I
3. K7E
4. K46Y
5. T69Y
6. E55F
7. K47W

Response given:
1. 3.39
2. 4.13
3. 4.5
4. 3.93
5. 4
6. 3.92
7. 3.75

Take each entry in turn and give its folding stability dG.
1. I35M
2. K3A
3. Q31A
4. E12R
5. S21H
6. N20Q
7. R26M

Response given:
1: 4.13; 2: 4.28; 3: 3.75; 4: 3.89; 5: 2.6; 6: 3.62; 7: 4.11

Take each entry in turn and give its folding stability dG.
1. N49Q
2. Q17Y
3. K64A
4. E40R
5. K3Y
6. V6G
7. R27I

Response given:
[3.93, 4, 3.83, 3.46, 4.74, 3.48, 3.22]
